- Tested on: LOVO cells
- protocol: LOVO CTG proliferation assay (120 h) (CRC, G13D)
- Assay type: cell-based
- experimental context: Homo sapiens, CTG 120 h
measured property: pIC50
// pIC50 is dimensionless: -log10 of concentration (M)

## Input Entry `C[C@H](Oc1cc(N2CCNC3(CC3)C2)nc(-c2onc3c2CCC[C@@]32CCCc3sc(N)c(C#N)c32)n1)[C@@H]1C[C@@H](F)CN1C` has what pIC50?
## Output 6.50

## Input Which pIC50 value belongs to `C[C@H](Oc1cc(-n2ccc(C#N)n2)nc(-c2noc3c2CCC[C@@]32CCCc3sc(N)c(C#N)c32)n1)[C@@H]1CCCN1C` ?
## Output 7.12

## Input Return reported pIC50; argument: `C[C@H](Oc1cc(N2CCNCC2)nc(-c2noc3c2CCC[C@@]32CCCc3sc(N)c(C#N)c32)n1)[C@@H]1CCCN1C`
## Output 5.18

## Input I'd like to know its pIC50. The compound in question is `CO[C@@H]1C[C@@H]([C@H](C)Oc2cc(-c3ccn(C)n3)nc(-c3noc4c3CCC[C@@]43CCCc4sc(N)c(C#N)c43)n2)N(C)C1`
## Output 6.87

## Input Entry under review: `C[C@H](Oc1cc(N2CCC[C@H](O)C2)nc(-c2noc3c2CCC[C@@]32CCCc3sc(N)c(C#N)c32)n1)[C@@H]1CCCN1C` . Reported pIC50?
## Output 6.30

## Input What pIC50 value was documented for this compound, `CO[C@H]1CCN(C)[C@@H]1[C@H](C)Oc1cc(-n2ccc(C(=O)N[C@H]3CCOC3)n2)nc(-c2noc3c2CCC[C@@]32CCCc3sc(N)c(C#N)c32)n1` ?
## Output 7.60

## Input Could you tell me which pIC50 is on file for `C[C@H](Oc1cc([C@H]2CCN(C)C2)nc(-c2noc3c2CCC[C@@]32CCCc3sc(N)c(C#N)c32)n1)[C@@H]1CCCN1C` ?
## Output 7.13

## Input Name the reported pIC50 value associated with the compound `CO[C@@H]1C[C@@H]([C@H](C)Oc2cc(-c3cnn(C)n3)nc(-c3onc4c3CCC[C@@]43CCCc4sc(N)c(C#N)c43)n2)N(C)C1`
## Output 6.14

## Input Recorded pIC50 for `C[C@H](Oc1cc(-c2ccncc2)nc(-c2noc3c2CCC[C@@]32CCCc3sc(N)c(C#N)c32)n1)[C@@H]1CCCN1C` , please?
## Output 6.76

## Input Quick one: pIC50 of `C[C@H](Oc1cc(N2CC[C@@H](O)C2)nc(-c2noc3c2CCC[C@@]32CCCc3sc(N)c(C#N)c32)n1)[C@@H]1CCCN1C` ?
## Output 5.43

## Input Given the entry `C[C@H](Oc1cc(N2CCNC[C@]23CCOC3)nc(-c2noc3c2CCC[C@@]32CCCc3sc(N)c(C#N)c32)n1)[C@@H]1CCCN1C` , report its measured pIC50.
## Output 5.79

## Input Can you look up the measured pIC50 of `C[C@H](Oc1cc(-c2ccn(CC(C)(C)O)n2)nc(-c2onc3c2CCC[C@@]32CCCc3sc(N)c(C#N)c32)n1)[C@@H]1CCCN1C` for me?
## Output 6.55

## Input Give its pIC50 value. Item: `C[C@H](Oc1cc(-n2ccnc2)nc(-c2onc3c2CCC[C@@]32CCCc3sc(N)c(C#N)c32)n1)[C@@H]1CCCN1C`
## Output 6.53

## Input What does the data say about its pIC50? Entry: `C[C@H](Oc1cc(-c2cccc(C(N)=O)c2)nc(-c2noc3c2CCC[C@@]32CCCc3sc(N)c(C#N)c32)n1)[C@@H]1CCCN1C`
## Output 6.34

## Input Which pIC50 is reported for this compound? `C[C@H](Oc1cc(N2CC[C@H](N(C)C)C2)nc(-c2noc3c2CCC[C@@]32CCCc3sc(N)c(C#N)c32)n1)[C@@H]1C[C@@H](F)CN1C`
## Output 6.06

## Input What does the data say about its pIC50? Entry: `C[C@H](Oc1cc(N2CC[C@H](N3CCCCC3)C2)nc(-c2noc3c2CCC[C@@]32CCCc3sc(N)c(C#N)c32)n1)[C@@H]1CCCN1C`
## Output 6.40

## Input Param item = C[C@H](Oc1cc(N2CCC(C#N)C2)nc(-c2noc3c2CCC[C@@]32CCCc3sc(N)c(C#N)c32)n1)[C@@H]1CCCN1C (stereo partly shown) ; retrieve measured pIC50.
## Output 6.54

## Input Need pIC50, item `C[C@H](Oc1cc(N2CC[C@@H](N(C)C)C2)nc(-c2noc3c2CCC[C@@]32CCCc3sc(N)c(C#N)c32)n1)[C@@H]1CCCN1C`
## Output 6.34

## Input # query: pIC50 of entry `C[C@H](Oc1cc(-n2ccc(C(=O)N[C@@H]3CCOC3)n2)nc(-c2noc3c2CCC[C@@]32CCCc3sc(N)c(C#N)c32)n1)[C@@H]1CCCN1C`
## Output 7.49

## Input May I ask what pIC50 has been recorded for `C[C@H](Oc1cc(-n2ccc(C(=O)NC3(C)COC3)n2)nc(-c2noc3c2CCC[C@@]32CCCc3sc(N)c(C#N)c32)n1)[C@@H]1CCCN1C` ?
## Output 6.96

## Input Quick one: pIC50 of `C[C@H](Oc1cc(-n2ccc(Br)n2)nc(-c2noc3c2CCC[C@@]32CCCc3sc(N)c(C#N)c32)n1)[C@@H]1CCCN1C` ?
## Output 7.04

## Input Any idea what its pIC50 is? The compound is `C[C@H](Oc1cc(-n2cc3c(n2)CN(C)C3)nc(-c2noc3c2CCC[C@@]32CCCc3sc(N)c(C#N)c32)n1)[C@@H]1CCCN1C`
## Output 6.86

## Input Please give the measured pIC50 for this compound: `C[C@H](Oc1cc(N2C[C@H](C)NC3(CC3)C2)nc(-c2onc3c2CCC[C@@]32CCCc3sc(N)c(C#N)c32)n1)[C@@H]1CCCN1C`
## Output 6.53

## Input Request the reported pIC50 associated with `COCCNC(=O)c1ccn(-c2cc(O[C@@H](C)[C@@H]3CCCN3C)nc(-c3noc4c3CCC[C@@]43CCCc4sc(N)c(C#N)c43)n2)n1`
## Output 7.92

## Input For `C[C@H]1CN(C)CCCN1c1cc(N2CCN(C)CC2)nc(-c2onc3c2CCC[C@@]32CCCc3sc(N)c(C#N)c32)n1` , what is its reported pIC50?
## Output 5.55

From: patent US20240174690A1
